# Test system: LOX IMVI melanoma
# METHOD_NOTES: NCI tumour cell line growth inhibition, 48 h; in the data active means GI50 below about 0.43 µM; inactive means the rest
Outcome codes: true (active), false (inactive)

- MOLECULE: "COc1cccc(/C=C2\\CCc3ccccc3C2=O)c1"
  CLASS_ASSIGNMENT: "false"
- MOLECULE: "ClCc1ccc(-c2ccc(Cn3cnc4c(Cl)ncnc43)cc2)cc1"
  CLASS_ASSIGNMENT: "false"
- MOLECULE: "Nc1nc(Cl)nc2c1ncn2C1OC(CO)C(O)C1O (stereo not given)"
  CLASS_ASSIGNMENT: "false"
- MOLECULE: "COc1cc(-c2ccc(=O)oc2C#Cc2ccccc2)cc(OC)c1OC"
  CLASS_ASSIGNMENT: "false"
- MOLECULE: "COC1/C=C/OC2(C)Oc3c(C)c(O)c4c(O)c(c(C=NOC(c5ccccc5)c5ccccc5)c(O)c4c3C2=O)NC(=O)/C(C)=C/C=C/C(C)C(O)C(C)C(O)C(C)C(OC(C)=O)C1C (stereo not given)"
  CLASS_ASSIGNMENT: "false"
- MOLECULE: "O=[N+]([O-])c1cccc([I+]c2ccccc2)c1"
  CLASS_ASSIGNMENT: "false"
- MOLECULE: "CCN(CC)CCNC(=O)C(Cl)=C1C(Cl)=C(Cl)C(Cl)=C1Cl"
  CLASS_ASSIGNMENT: "false"
- MOLECULE: "O=C(NC(Cc1ccccc1)C(=O)CCl)OCc1ccccc1 (stereo not given)"
  CLASS_ASSIGNMENT: "false"
- MOLECULE: "O=C1Nc2c(ccc(Cl)c2Cl)/C1=C\\c1cc(C(F)(F)F)cc(C(F)(F)F)c1"
  CLASS_ASSIGNMENT: "false"
- MOLECULE: "O=C1c2ccccc2-c2ccccc2C1(Cl)Cl"
  CLASS_ASSIGNMENT: "true"

====

# System: OVCAR-5 ovarian
# METHOD_NOTES: NCI tumour cell line growth inhibition, 48 h

- COMPOUND: "C=CCCCC(O)c1ccc(C(O)c2cnc3ccccc3c2)o1 (stereo not given)"
  TESTED_SYSTEM: "OVCAR-5 ovarian"
  GI50: "24.4 µM"
- COMPOUND: "N/C(=N\\C(N)=N\\c1nc2ccccc2s1)c1ccnc(Br)c1"
  TESTED_SYSTEM: "OVCAR-5 ovarian"
  GI50: "62.3 µM"
- COMPOUND: "O=[N+]([O-])c1cccc([I+]c2ccccc2)c1"
  TESTED_SYSTEM: "OVCAR-5 ovarian"
  GI50: "17.7 µM"
- COMPOUND: "Oc1[nH]c2ccccc2c1/C=c1/ccc2c(c1)N=C(c1cc(F)cc(F)c1)N=2"
  TESTED_SYSTEM: "OVCAR-5 ovarian"
  GI50: "16.8 µM"
- COMPOUND: "Cc1cc2nc3c4cc([N+](=O)[O-])ccc4n(CCN(C)C)c3nc2cc1C"
  TESTED_SYSTEM: "OVCAR-5 ovarian"
  GI50: "0.651 µM"
- COMPOUND: "Cn1c(=O)c(-c2c(Cl)cccc2Cl)cc2cnc(Nc3ccc(I)cc3)nc21"
  TESTED_SYSTEM: "OVCAR-5 ovarian"
  GI50: "0.536 µM"
- COMPOUND: "COc1ccc(/C=C/C(=O)c2ccccc2)cc1OC"
  TESTED_SYSTEM: "OVCAR-5 ovarian"
  GI50: "21.4 µM"
- COMPOUND: "COC1/C=C/OC2(C)Oc3c(C)c(O)c4c(O)c(c(C=NOC(c5ccccc5)c5ccccc5)c(O)c4c3C2=O)NC(=O)/C(C)=C/C=C/C(C)C(O)C(C)C(O)C(C)C(OC(C)=O)C1C (stereo not given)"
  TESTED_SYSTEM: "OVCAR-5 ovarian"
  GI50: "0.984 µM"
- COMPOUND: "CCN(CC)CC(O)c1cc(-c2ccc(Cl)cc2)nc2cc(Cl)ccc12 (stereo not given)"
  TESTED_SYSTEM: "OVCAR-5 ovarian"
  GI50: "2.11 µM"
- COMPOUND: "COc1cccc(/C=C2\\CCc3ccccc3C2=O)c1"
  TESTED_SYSTEM: "OVCAR-5 ovarian"
  GI50: "17.6 µM"

====

# System: NCI-H23 lung
# METHOD_NOTES: NCI tumour cell line growth inhibition, 48 h

- MOLECULE: "Nc1ccn(CCCC(c2ccccc2)P(=O)(O)O)c(=O)n1 (stereo unspecified)"
  TGI: "> 100 µM"
- MOLECULE: "C=CCCCC(O)c1ccc(C(O)c2cnc3ccccc3c2)o1 (stereo unspecified)"
  TGI: "49.6 µM"
- MOLECULE: "O=C(NCCCc1cn[nH]c(=O)n1)c1cccc2nc3ccccc3nc12"
  TGI: "> 100 µM"
- MOLECULE: "C[C@]12CCC(=O)C=C1CC[C@@H]1C2CC[C@@]2(C)C1CC[C@@H]2OC(=O)C12OC1CCC2=O (stereo partly specified)"
  TGI: "33.6 µM"
- MOLECULE: "Cn1c(=O)oc2cc(C(=S)N3CCCCC3)ccc21"
  TGI: "> 100 µM"
- MOLECULE: "CCN(CC)CCNC(=O)C(Cl)=C1C(Cl)=C(Cl)C(Cl)=C1Cl"
  TGI: "26.5 µM"
- MOLECULE: "Clc1ccc(Nc2nnc(CNc3ccc(-c4nnc(Nc5ccc(Cl)cc5)o4)cc3)o2)cc1"
  TGI: "36 µM"
- MOLECULE: "CCOC(=O)C1=C(O)c2ccc(OC)cc2C(=O)C1=O"
  TGI: "> 100 µM"
- MOLECULE: "O=C(Nc1nc(-c2ccccc2Cl)cs1)c1cc(-c2ccc(Cl)cc2)nc2ccc(Cl)cc12"
  TGI: "> 100 µM"
- MOLECULE: "NNc1ncnc2cccc(Cl)c12"
  TGI: "> 100 µM"
- MOLECULE: "CCOC(=O)Cn1c(=O)[nH]c(=O)c2[nH]cnc21"
  TGI: "> 100 µM"

====

# Tested on: SF-295 CNS
# METHOD_NOTES: NCI tumour cell line growth inhibition, 48 h; in the data active = GI50 below about 0.43 µM; inactive = the rest
Outcome codes: YES = active, NO = inactive

- MOLECULE: "CS(=O)(=O)c1ccc(-c2cnc(NCc3ccco3)n3cnnc23)cc1"
  CLASS_ASSIGNMENT: "NO"
- MOLECULE: "Cc1cc2nc3c4cc([N+](=O)[O-])ccc4n(CCN(C)C)c3nc2cc1C"
  CLASS_ASSIGNMENT: "YES"
- MOLECULE: "Clc1ccc(Nc2ncnc3c2sc2ncccc23)c(Cl)c1"
  CLASS_ASSIGNMENT: "YES"
- MOLECULE: "COC1/C=C/OC2(C)Oc3c(C)c(O)c4c(O)c(c(C=NOC(c5ccccc5)c5ccccc5)c(O)c4c3C2=O)NC(=O)/C(C)=C/C=C/C(C)C(O)C(C)C(O)C(C)C(OC(C)=O)C1C (stereo unspecified)"
  CLASS_ASSIGNMENT: "NO"
- MOLECULE: "Cn1c(=O)c(-c2c(Cl)cccc2Cl)cc2cnc(Nc3ccc(I)cc3)nc21"
  CLASS_ASSIGNMENT: "YES"
- MOLECULE: "CC/C(=C(/CC)c1ccc(O)cc1)c1ccc(O)cc1"
  CLASS_ASSIGNMENT: "NO"
- MOLECULE: "O=C1c2ccccc2-c2ccccc2C1(Cl)Cl"
  CLASS_ASSIGNMENT: "NO"
- MOLECULE: "O=C(Nc1ccc(Cl)cc1)c1cc2ccccc2cc1OP(=O)(O)O"
  CLASS_ASSIGNMENT: "NO"
- MOLECULE: "ClCc1ccc(-c2ccc(Cn3cnc4c(Cl)ncnc43)cc2)cc1"
  CLASS_ASSIGNMENT: "NO"
- MOLECULE: "COc1ccc(/C=C/C(=O)c2ccccc2)cc1OC"
  CLASS_ASSIGNMENT: "NO"
- MOLECULE: "NCCCCCCCCCn1c2c(c3ccccc3c1=O)C(=O)c1ccccc1-2"
  CLASS_ASSIGNMENT: "NO"

====

Recorded TGI by entry
# System: KM12 colon
# METHOD_NOTES: NCI tumour cell line growth inhibition, 48 h

- MOLECULE: "O=c1sc(-c2nc3ccccc3[nH]2)c(/N=C/c2ccccc2)n1-c1ccccc1"
  TGI: "> 100 µM"
- MOLECULE: "C=C(C)C1CCC2(C(=O)O)CCC3(C)C(CCC4C5(C)CCC(O)C(C)(C)C5CCC43C)C12 (stereo not given)"
  TGI: "20.3 µM"
- MOLECULE: "O=C1CCCCCCCCCCOC(=O)CCCCCCCCCCO1"
  TGI: "> 100 µM"
- MOLECULE: "CCN(CC)CCNC(=O)C(Cl)=C1C(Cl)=C(Cl)C(Cl)=C1Cl"
  TGI: "10.6 µM"
- MOLECULE: "COc1ccccc1[C@@H]1CCC2CC[C@@H](c3ccccc3OC)[N+]21Cc1ccccc1 (stereo not given in full)"
  TGI: "7.03 µM"
- MOLECULE: "COc1cc(/C=C/c2ccc(S(N)(=O)=O)cc2)cc(OC)c1"
  TGI: "57.6 µM"
- MOLECULE: "COC(=O)[C@H](C)[C@@H]1CC[C@](C)(CCC2=C(C)CCCC2(C)C)OO1"
  TGI: "> 25 µM"
- MOLECULE: "Cc1csc2c(=O)n(COCc3ccccc3)c(=O)[nH]c12"
  TGI: "> 100 µM"
- MOLECULE: "COC(=O)C1=C(C)NC2=C(C(=O)c3ccccc32)C1c1cn[nH]c1-c1ccccc1 (stereo not given)"
  TGI: "> 100 µM"
- MOLECULE: "COc1cccc2c1C(=O)c1c(O)c3c(c(O)c1C2=O)CC(O)(C(C)=O)CC3O (stereo not given)"
  TGI: "38.5 µM"

// data source = PubChem BioAssay (NCI)
